# kcat per record follows
Substrate: CC(O)CO
Test: purified protein
Type: biochemical, Paracoccus denitrificans
Conditions: 100 mM glycine-NaOH pH 10, 2.4 mM NAD+, 30 °C, oxidation
VALUE TYPE: kcat (s⁻¹)

PROTEIN	UNIT NAME	MEAS VALUE
EtgB (Paracoccus denitrificans PD1222; T44S) (protein, pET16b, His-tagged, E. coli BL21 AI, Ni-NTA purified; homotetramer; zinc-dependent medium-chain alcohol dehydrogenase) MAKTMKAAVVREFGKPLTIDEVPVPEPGPGMIQVRIQASGVCHSDLHAAEGDWPVKPNPPFIPGHEGVGFVSAVGAGVKHVKEGDRVGVPWLYTACGHCRHCLGGWETLCESQLNTGYSVNGGFADYVVADPNYVGHLPKNVDFLDIAPVLCAGVTVYKGLKVTDTKPGDWVVISGIGGLGHMAVQYAKAMGMNVAAVDIDDEKLALARKLGATVTVNAATEPDPAAAIRKQTDGGAQGVLVTAVGRKAFEQAIGMVARGGTVALNGLPPGDFPLDIFGMVLNGITVRGSIVGTRLDLQESLDFAGDGKVKATVHKAKLEDINNIFGQMHKGQIEGRMVLDMAG	s⁻¹	1.6
EtgB (Paracoccus denitrificans PD1222; H47N/T44S) (protein, pET16b, His-tagged, E. coli BL21 AI, Ni-NTA purified; homotetramer; zinc-dependent medium-chain alcohol dehydrogenase) MAKTMKAAVVREFGKPLTIDEVPVPEPGPGMIQVRIQASGVCHSDLNAAEGDWPVKPNPPFIPGHEGVGFVSAVGAGVKHVKEGDRVGVPWLYTACGHCRHCLGGWETLCESQLNTGYSVNGGFADYVVADPNYVGHLPKNVDFLDIAPVLCAGVTVYKGLKVTDTKPGDWVVISGIGGLGHMAVQYAKAMGMNVAAVDIDDEKLALARKLGATVTVNAATEPDPAAAIRKQTDGGAQGVLVTAVGRKAFEQAIGMVARGGTVALNGLPPGDFPLDIFGMVLNGITVRGSIVGTRLDLQESLDFAGDGKVKATVHKAKLEDINNIFGQMHKGQIEGRMVLDMAG	s⁻¹	6.5
EtgB (Paracoccus denitrificans PD1222; H47N) (protein, pET16b, His-tagged, E. coli BL21 AI, Ni-NTA purified; homotetramer; zinc-dependent medium-chain alcohol dehydrogenase) MAKTMKAAVVREFGKPLTIDEVPVPEPGPGMIQVRIQASGVCHTDLNAAEGDWPVKPNPPFIPGHEGVGFVSAVGAGVKHVKEGDRVGVPWLYTACGHCRHCLGGWETLCESQLNTGYSVNGGFADYVVADPNYVGHLPKNVDFLDIAPVLCAGVTVYKGLKVTDTKPGDWVVISGIGGLGHMAVQYAKAMGMNVAAVDIDDEKLALARKLGATVTVNAATEPDPAAAIRKQTDGGAQGVLVTAVGRKAFEQAIGMVARGGTVALNGLPPGDFPLDIFGMVLNGITVRGSIVGTRLDLQESLDFAGDGKVKATVHKAKLEDINNIFGQMHKGQIEGRMVLDMAG	s⁻¹	13.2

Sourced from paper PMC12214560
